test system: Human sebocytes; assay: Lipogenesis of human sebocytes; format: cell-based; settings: 96 hours, nile red, read-out: LG-Sebo IC50
parameter_measured: IC50 (nM)
Provide the reading as a plain figure in nM.

COc1cc(C(=O)N2CCC3(CC2)Cc2ccc(C(C)C)cc2C(=O)O3)cc2c(OC)cccc12 [Example 1] ... 10

Query: Entry under review: COc1cc(C(=O)N2CCC3(CC2)Cc2ccc(C(C)C)cc2C(=O)O3)nc2c(OC)cccc12 [Example 2] . Reported IC50?
Result: 25

---

experiment: PK study in male C57 mouse for Examples 14 and 15; type: in vivo; settings: male, C57, mouse, plasma, iv, 1 mg/kg, Example 15 dosed 1 mpk IV, 1.00 h
parameter_measured: concentration at 1 h (ng/mL)
Provide the reading as a plain figure in ng/mL.

Query: Entry under review: COc1cc(C(=O)N2CCC3(CC2)Cc2ccc(-c4cncc(C(=O)O)c4)cc2C(=O)O3)nc2c(OC)cccc12 . Reported concentration at 1 h?
Result: 28
